Where do the numbers come from? From patent US20240150370A1.

- TESTED ON: human TAAR1 receptor (Homo sapiens (Human), UniProt Q96RJ0)
- Sequence (Q96RJ0 whole entry): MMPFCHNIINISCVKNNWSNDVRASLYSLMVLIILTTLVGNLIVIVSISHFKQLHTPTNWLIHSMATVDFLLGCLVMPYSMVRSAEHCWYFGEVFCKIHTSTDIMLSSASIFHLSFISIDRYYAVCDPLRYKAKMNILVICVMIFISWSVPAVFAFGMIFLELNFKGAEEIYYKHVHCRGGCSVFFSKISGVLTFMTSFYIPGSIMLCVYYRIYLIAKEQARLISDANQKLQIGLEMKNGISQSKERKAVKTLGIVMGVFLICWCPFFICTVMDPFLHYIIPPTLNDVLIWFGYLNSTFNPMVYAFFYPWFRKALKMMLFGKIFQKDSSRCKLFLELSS
- TEST PROTOCOL: Evaluation of agonist activity on human TAAR1 receptor (cAMP assay)
- Format: cell-based
- SETUP CONDITIONS: CHO, 0.5 h, 1000 nM; cAMP in human TAAR1-expressing CHO cells; relative to 100 μM tyramine; read-out: TAAR1 agonist activity at each concentration (%)
Where a name gives a salt, the structure may show the parent alone.
Quick reference: activation at 1 µM of the listed items.
Number in %, nothing else.

Worked cases, answers included:
• CCOc1ccnc2c1CCC2CN (centres unmarked) = 6
• CCCNC[C@H]1c2ncccc2O[C@@H]1C = 4
• NCC1c2nc(Cl)ccc2OC12CC2 (centres unmarked) = 86
• NC[C@H]1CCSc2cccnc21 (single isomer, unassigned) [Example 39, dihydrochloride] = 12

Now, please, on to the next compound.
Input line: Which activation at 1 µM is listed for Cc1ccnc2c1O[C@H](C)[C@H]2CN [Example 34, dihydrochloride] ?
Output line: 48

###

Quick reference: activation at 1 µM of the listed items.
- TESTED ON: human TAAR1 receptor (Homo sapiens (Human), UniProt Q96RJ0)
- TEST PROTOCOL: Evaluation of agonist activity on human TAAR1 receptor (cAMP assay)
- Assay type: cell-based
- SETUP CONDITIONS: CHO, 0.5 h, 1000 nM; cAMP in human TAAR1-expressing CHO cells; relative to 100 μM tyramine; read-out: TAAR1 agonist activity at each concentration (%)
Structures can show the parent of a compound that is named as a salt.
Number in %, nothing else.

Worked cases, answers included:
* NC[C@H]1c2ncccc2O[C@@H]1CO (racemic) | 25
* C[C@@H]1COc2cccnc2[C@@H]1CN (stereo in doubt) [Example 2, dihydrochloride] | 37
* C[C@H]1[C@H](CN)c2ncccc2O[C@@H]1C (racemic) | 22
* CC[C@H]1Oc2cccnc2[C@@H]1CN (stereo in doubt) [Example 22] | 56

Now, please, on to the next molecule.
Input line: Which activation at 1 µM is listed for CC(C)[C@H]1Oc2cccnc2[C@@H]1CN (racemic) ?
Output line: 23

###

Quick reference: activation at 0.1 µM of the listed items.
- TESTED ON: human TAAR1 receptor (Homo sapiens (Human))
- TEST PROTOCOL: Evaluation of agonist activity on human TAAR1 receptor (cAMP assay)
- Type: cell-based
- SETUP CONDITIONS: CHO, 0.5 h, 100 nM; cAMP in human TAAR1-expressing CHO cells; relative to 100 μM tyramine; read-out: TAAR1 agonist activity at each concentration (%)
Counter-ions that a name gives are not always drawn.
Number in %, nothing else.

Worked cases, answers included:
* Cc1ccc2c(n1)[C@@H](CN)C[C@@H](C)O2 | 0
* C[C@H]1Oc2cccnc2[C@@H]1CN [Example 27, dihydrochloride] | 40
* CCCNC[C@H]1c2ncccc2O[C@@H]1C | 0
* CC[C@H]1Oc2cccnc2[C@@H]1CN (stereo in doubt) [Example 22] | 11
* CNC[C@@H]1C[C@@H](C)Oc2ccc(C)nc21 | 13
* C[C@@H]1C[C@H](CN)c2ncc(F)cc2O1 | 1
* NCC1CCOc2ccc(C(F)(F)F)nc21 (stereo not shown) | 1
* CCOc1ccnc2c1CCC2CN (stereo not shown) | 0
* C[C@H]1Sc2cccnc2[C@@H]1CN (racemic) | 24

Now, please, on to the next compound.
Input line: Which activation at 0.1 µM is listed for Cc1ccc2c(n1)[C@H](CN)[C@@H](C)O2 ?
Output line: 57

###

- TESTED ON: human TAAR1 receptor (Homo sapiens (Human))
- TEST PROTOCOL: Evaluation of agonist activity on human TAAR1 receptor (cAMP assay)
- Type: cell-based
- SETUP CONDITIONS: CHO, 0.5 h, 100 nM; cAMP in human TAAR1-expressing CHO cells; relative to 100 μM tyramine; read-out: TAAR1 agonist activity at each concentration (%)
Where a name gives a salt, the structure may show the parent alone.
Quick reference: activation at 0.1 µM of the listed items.
The number alone won't do; follow it with the unit.

- Cc1cnc2c(c1)O[C@H](C)[C@H]2CN: 7%
- C[C@@H]1[C@H](C)Oc2cccnc2[C@H]1CN (racemic): 0%
- Cc1ccnc2c1OCCC2CN (stereo not shown): 0%
- C[C@H]1[C@H](C)Oc2cccnc2[C@H]1CN (racemic): 0%
- [2H][C@]1(C)Oc2cccnc2[C@H]1CN (relative stereo) [Example 95, dihydrochloride]: 59%
- C[C@@H]1Oc2cccnc2[C@@H]1CN: 33%
- C[C@@H]1C[C@@H](CN)c2ncc(F)cc2O1: 21%
- NC[C@H]1C[C@@H](c2ccccc2)Oc2cccnc21 (racemic): 25%

Input line: Which activation at 0.1 µM is listed for COCCNC[C@H]1c2ncccc2O[C@@H]1C ?
Output line: 0%

Input line: // same read-out, input: C[C@H]1Oc2ccc(F)nc2[C@@H]1CN
Output line: 51%

###

- TESTED ON: UniProtKB Q96RJ0
- TEST PROTOCOL: Evaluation of agonist activity on human TAAR1 receptor (cAMP assay)
- Format: cell-based
- SETUP CONDITIONS: CHO, 0.5 h, 10000 nM; cAMP in human TAAR1-expressing CHO cells; relative to 100 μM tyramine; read-out: TAAR1 agonist activity at each concentration (%)
Counter-ions that a name gives are not always drawn.
ENDPOINT: activation at 10 µM

Worked cases, answers included:
• C[C@H]1Oc2cccnc2[C@@H]1CN [Example 27, dihydrochloride] = 95%
• C[C@@H]1C[C@@H](CN)c2ncccc2S1 (racemic) = 74%

Input line: Which activation at 10 µM is listed for CNC[C@H]1c2nccc(C)c2O[C@@H]1C ?
Output line: 77%

Input line: // same read-out, input: Cc1ccc2c(n1)[C@H](CN)C[C@@H](C)O2
Output line: 87%

Input line: // same read-out, input: CC1(C)Oc2ccc(F)nc2C1CN (racemic) [Example 106, dihydrobromide]
Output line: 78%

Input line: // same read-out, input: CNCC1CCSc2cccnc21 (racemic) [Example 45, dihydrochloride]
Output line: 77%

Input line: // same read-out, input: CCNC[C@H]1c2ncccc2O[C@@H]1C
Output line: 92%

Input line: // same read-out, input: C[C@@H]1C[C@H](CN)c2ncc(F)cc2O1
Output line: 48%

Input line: // same read-out, input: NC[C@@H]1C[C@@H](c2ccccc2)Oc2cccnc21 (racemic)
Output line: 63%

###

- TESTED ON: UniProtKB Q96RJ0
- TEST PROTOCOL: Evaluation of agonist activity on human TAAR1 receptor (cAMP assay)
- Format: cell-based
- SETUP CONDITIONS: CHO, 0.5 h, 10000 nM; cAMP in human TAAR1-expressing CHO cells; relative to 100 μM tyramine; read-out: TAAR1 agonist activity at each concentration (%)
Structures can show the parent of a compound that is named as a salt.
Quick reference: activation at 10 µM of the listed items.
Number in %, nothing else.

• NCC1c2ncccc2OC12CC2 (stereo not drawn) [Example 58] = 82
• Cc1ccc(-c2ccnc3c2CCCC3CN)cc1 (racemic) [Example 89, dihydrochloride] = 48
• CC[C@@H]1C[C@H](CN)c2ncccc2O1 (racemic) [Example 60] = 82

Now, please, on to the next compound.
Input line: Which activation at 10 µM is listed for C[C@@H]1[C@H](CN)c2ncccc2O[C@@H]1C (racemic) [Example 62, dihydrochloride] ?
Output line: 66

###

- TESTED ON: human TAAR1 receptor (Homo sapiens (Human))
- TEST PROTOCOL: Evaluation of agonist activity on human TAAR1 receptor (cAMP assay)
- Assay type: cell-based
- SETUP CONDITIONS: CHO, 0.5 h, 1000 nM; cAMP in human TAAR1-expressing CHO cells; relative to 100 μM tyramine; read-out: TAAR1 agonist activity at each concentration (%)
Structures can show the parent of a compound that is named as a salt.
ENDPOINT: activation at 1 µM (%)
Number in %, nothing else.

- Cc1ccc2c(n1)C(CN)C1(CC1)O2 (racemic) [Example 90, dihydrochloride]: 85
- CC[C@@H]1Oc2cccnc2[C@H]1CN (stereo in doubt) [Example 44, dihydrochloride]: 48
- C[C@H]1Oc2ccc(C(F)(F)F)nc2[C@@H]1CN: 18
- NCC1CCSc2cccnc21 (stereo not shown): 53
- CNCC1CCSc2cccnc21 (racemic) [Example 45, dihydrochloride]: 51
- NCC1c2ncccc2OC12CC2 (stereo not shown): 74
- CNC[C@@H]1C[C@@H](C)Oc2cccnc21 (racemic): 56
- COC[C@H]1Oc2cccnc2[C@@H]1CN (racemic): 4

Input line: Which activation at 1 µM is listed for C[C@H]1C[C@@H](CN)c2ncccc2S1 (racemic) ?
Output line: 31

Input line: // same read-out, input: NC[C@@H]1CCSc2cccnc21 (single isomer, unassigned) [Example 40, dihydrochloride]
Output line: 57

Input line: // same read-out, input: Cc1ccc2c(n1)C(CN)CCS2 (stereo not shown)
Output line: 58

Input line: // same read-out, input: CC1(C)Oc2cccnc2C1CN (stereo not shown)
Output line: 74

Input line: // same read-out, input: CC[C@H]1Oc2cccnc2[C@@H]1CN (stereo in doubt) [Example 43, dihydrochloride]
Output line: 0

Input line: // same read-out, input: C[C@@H]1[C@H](CN)c2ncccc2O[C@@H]1C (racemic) [Example 62, dihydrochloride]
Output line: 20

Input line: // same read-out, input: NCC1CCc2c(OC3CCC3)ccnc21 (racemic) [Example 91, dihydrochloride]
Output line: 14

Input line: // same read-out, input: NC[C@H]1c2ncc(Cl)cc2OC12CC2 (single isomer, unassigned) [Example 99, dihydrochloride]
Output line: 39

Input line: // same read-out, input: C[C@H]1COc2cccnc2[C@@H]1CN (racemic) [Example 1, dihydrochloride]
Output line: 18

Input line: // same read-out, input: CNC[C@H]1c2nccc(C)c2O[C@@H]1C
Output line: 46

Input line: // same read-out, input: NCC1c2nc(F)ccc2OC12CC2 (stereo not shown)
Output line: 92
